For reference, the following IC50 results for Histone deacetylase 9 (Homo sapiens, UniProt Q9UKV0) were taken from various sources.

[
  {
    "chemical structure": "O=C(/C=C/c1ccc(O)c(O)c1)CCCc1ccccc1",
    "endpoint label": "IC50",
    "reading": "17.3 µM"
  },
  {
    "chemical structure": "O=C(/C=C/c1cccc(O)c1O)CCCCc1ccccc1",
    "endpoint label": "IC50",
    "reading": "18.1 µM"
  },
  {
    "chemical structure": "COc1cc(/C=C/C(=O)CCCCc2ccccc2)ccc1O",
    "endpoint label": "IC50",
    "reading": "> 40 µM"
  },
  {
    "chemical structure": "O=C(CCCCc1ccccc1)CCc1ccc(O)c(Cl)c1",
    "endpoint label": "IC50",
    "reading": "> 40 µM"
  },
  {
    "chemical structure": "O=C(CCCCc1ccccc1)CCc1ccc(O)cc1",
    "endpoint label": "IC50",
    "reading": "> 40 µM"
  }
]

Exercise: Return value of IC50 for input O=C(/C=C/c1ccc(O)c(O)c1)Cc1ccccc1 , no commentary.
Solution: 29.2 µM

Exercise: Return value of IC50 for input CC[C@H]1OC(=O)[C@H](C)[C@@H](O[C@H]2C[C@@](C)(OC)[C@@H](O)[C@H](C)O2)[C@H](C)[C@@H](O[C@@H]2O[C@H](C)C[C@H](N(C)Cc3ccc(-c4cn(CCCCCCC(=O)NO)nn4)cc3)[C@H]2O)[C@](C)(O)C[C@@H](C)CN(C)[C@H](C)[C@@H](O)[C@]1(C)O , no commentary.
Solution: 6.91 µM

Exercise: Return value of IC50 for input O=C(CCCc1ccccc1)CCc1ccc(O)c(O)c1 , no commentary.
Solution: 17.3 µM

Exercise: Return value of IC50 for input O=C(CCCCc1ccccc1)CCc1ccccc1 , no commentary.
Solution: > 40 µM

Exercise: Return value of IC50 for input Br.CN(C)C(SCCCCCCn1cnc2c(-c3cc(Br)c(Br)[nH]3)nccc21)=[N+](C)C.[Cl-] , no commentary.
Solution: > 200 µM

Exercise: Return value of IC50 for input O=C(/C=C/c1cccc(O)c1)CCCCc1ccccc1 , no commentary.
Solution: > 40 µM

Exercise: Return value of IC50 for input O=C(CCCCc1ccccc1)CCc1ccc(O)c(Br)c1 , no commentary.
Solution: > 40 µM

Exercise: Return value of IC50 for input CCCCN(Cc1ccc(C(=O)NO)cc1)C(=O)CCCCn1cc(COc2cccc(Cc3cnc(NC(=O)CSc4nc(C)cc(C)n4)s3)c2)nn1 , no commentary.
Solution: > 20 µM

Exercise: Return value of IC50 for input O=C(CCCCc1ccccc1)CCc1ccc(O)c(O)c1 , no commentary.
Solution: 5.3 µM
